# target.desc: human serum albumin (HSA) (Homo sapiens)
# Sequence (P02768 25-609): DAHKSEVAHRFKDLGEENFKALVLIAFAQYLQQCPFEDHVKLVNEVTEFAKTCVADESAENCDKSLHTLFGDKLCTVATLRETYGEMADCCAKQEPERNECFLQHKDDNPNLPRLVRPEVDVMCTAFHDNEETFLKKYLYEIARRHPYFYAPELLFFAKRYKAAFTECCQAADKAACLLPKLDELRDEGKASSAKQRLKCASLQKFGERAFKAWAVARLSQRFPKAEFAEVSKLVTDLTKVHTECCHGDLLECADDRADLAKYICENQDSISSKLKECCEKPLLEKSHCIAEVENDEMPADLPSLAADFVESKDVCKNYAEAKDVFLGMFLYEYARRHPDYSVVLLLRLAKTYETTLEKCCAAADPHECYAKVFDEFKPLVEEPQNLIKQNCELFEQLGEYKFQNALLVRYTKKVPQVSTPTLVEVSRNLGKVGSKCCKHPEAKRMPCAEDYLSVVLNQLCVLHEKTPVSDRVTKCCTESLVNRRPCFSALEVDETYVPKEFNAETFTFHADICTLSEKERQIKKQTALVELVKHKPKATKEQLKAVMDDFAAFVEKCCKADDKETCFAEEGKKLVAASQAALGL
# method: Protein binding on chemically bonded HSA column (Chiralpak-HSA)
# condition.label: remeasured in this study, pH 7.4
In plain terms, low log K HSA, meaning strictly below 2, gives 1.0, and everything else gives 0.0.

>  <molecule>
C#C[C@]1(O)CC[C@H]2[C@@H]3CCc4cc(O)ccc4[C@H]3CC[C@@]21C [Ethinyl estradiol]

>  <answer.label>
1.0

$$$$

is_below(log K HSA, 2) for CCN(CC)CCNC(=O)c1ccc(N)cc1 [Procainamide] ?
1.0

is_below(log K HSA, 2) for CC1=NS(=O)(=O)c2cc(Cl)ccc2N1 [Diazoxide] ?
0.0

is_below(log K HSA, 2) for NC(=O)OCC(COC(N)=O)c1ccccc1 [Felbamate] ?
0.0

is_below(log K HSA, 2) for Clc1ccc2c(c1)C(N1CCNCC1)=Nc1ccccc1O2 [Amoxapine] ?
0.0

is_below(log K HSA, 2) for O=C1C(CC[S+]([O-])c2ccccc2)C(=O)N(c2ccccc2)N1c1ccccc1 (stereo not shown) [Sulfinpyrazone] ?
0.0

is_below(log K HSA, 2) for COc1cnc(NS(=O)(=O)c2ccc(N)cc2)nc1 [Sulfameter] ?
0.0
